Values were extracted from patent US20230357348A1.

system: human GLP-1 receptor (hGLP-1R) (human, UniProt P43220 24-463)
procedure-summary: cell-based or functional assay
Starred links: 1 amine or outer side, 2 acyl side, 3 side chain; linkers in the order of their positions; H or OH if unused. Non-standard residues stand in square brackets, D forms with d. Groups on a side chain read outwards from the residue. No end group written: not given here. *: point of attachment. C18 diacid = O=C(O)CCCCCCCCCCCCCCCCC(=O)*; γGlu = O=C(O)[C@H](CCC(=O)[*:2])N[*:1]; αMeF = C[C@](N)(Cc1ccccc1)C(=O)O; AEEA = NCCOCCOCC(=O)O; Aib = CC(C)(N)C(=O)O
measured-metric: hGLP-1R EC50 (pM); cAMP production

{"binder": "HXHGTFTSDVSKXLDSQAAQDFVXWIANT (Aib at 2; αMePhe at 6 and 13; K(O2Oc-O2Oc-γE-C18diacid)24; C-terminal amide) [Peptide 348]", "observed-value": 70.1}
{"binder": "HXHGSXTSDVSKXLDSQAAQDFVXWIANT (Aib at 2; αMePhe at 6 and 13; K(γE-γE-(PEG)2-γE-γE-C20diacid)24; C-terminal amide) [Peptide 357]", "observed-value": 917}
{"binder": "HXHGSXTSDVSKXLDSQAAQDFVXWIANT (Aib at 2; αMePhe at 6 and 13; K(γE-C20diacid)24; C-terminal amide) [Peptide 354]", "observed-value": 1110}
{"binder": "HXIGSXTSDVSKXLDSQAAQDFVXWIANT (Aib at 2; αMePhe at 6 and 13; K(O2Oc-O2Oc-γE-C18diacid)24; C-terminal amide) [Peptide 359]", "observed-value": 46.1}
{"binder": "H[Aib]HGS[αMeF]TSDVSK[αMeF]LDSRAAQD[αMeF]VK([AEEA-AEEA-γGlu-C18 diacid])SIANT-NH2 (not fully specified) [Peptide 379]", "observed-value": 71.8}
